Target: T1, A-beta(1-16) peptide (human)
T1 construct: Bachem peptide captured on streptavidin chip; also called monomeric A-beta(1-16)
T1 peptide: DAEFRHDSGYEVHHQK-biotin
Assay: SPR on captured A-beta(1-16)
Ends that are not written are not given here.
reported-endpoint: binding result

binder: ABII60H5 (VHH) VHH: EVQLVESGGGLVQVGGSLRLSCAASGNIGSINAMGWYRQAPGKEREWVAIITNSGSVNYGPDSVKGRFTISGDNAKNRVYLQMDSLKPEDTAVYYCAAESWGRSPLKYLGQGTQVTVSS
reported-endpoint: binding result
observed-result: binds
--
binder: ABII5D2 (VHH) VHH: EVQLVESGGGLVQAGGSLRLSCAASGRTFSSYAMGWVRQAPGKERELVATISQSGGLRSYADSVKGRFTISRDNAKNTVYLQMNSLTPGDTAVYYCAAQARATAWSPQRVDYWGQGTQVTVSS
reported-endpoint: binding result
observed-result: binds
